Value source: ChEMBL document CHEMBL1139533

System: Staphylococcus epidermidis
Test: Minimum inhibitory concentration against 533 Staphylococcus epidermidis
Assay type: functional
Measured Endpoint: MIC

INSERT INTO assay_data (compound, endpoint_value) VALUES
  ('NC(=O)C[C@@H]1NC(=O)[C@H](N)[C@H](O)c2ccc(cc2)Oc2cc3cc(c2O)Oc2ccc(cc2)[C@@H](O)[C@@H]2NC(=O)[C@H](NC(=O)[C@@H]3NC1=O)c1ccc(O)c(c1)-c1c(O)cc(O)cc1[C@@H](C(=O)O)NC2=O', '> 128 µg/mL');

Batch lookup, MIC per entry.
1. NC(=O)C[C@@H]1NC(=O)[C@H](N)[C@H](O)c2ccc(cc2)Oc2cc3cc(c2O)Oc2ccc(cc2)[C@@H](O)[C@@H]2NC(=O)[C@H](NC(=O)[C@@H]3NC1=O)c1ccc(O)c(c1)-c1c(O)cc(O)cc1[C@@H](C(=O)NCC13CC4CC(CC(C4)C1)C3)NC2=O
2. NC(=O)C[C@@H]1NC(=O)[C@H](N)[C@H](O)c2ccc(c(Cl)c2)Oc2cc3cc(c2O)Oc2ccc(cc2)[C@@H](O)[C@@H]2NC(=O)[C@H](NC(=O)[C@@H]3NC1=O)c1ccc(O)c(c1)-c1c(O)cc(O)cc1[C@@H](C(=O)NC1C3CC4CC(C3)CC1C4)NC2=O (stereo partly drawn)

Result:
> 32 µg/mL
> 32 µg/mL
